Here, each record is paired with measured melting point data.

Query: Which melting point is listed for CC1CC(=O)NN=C1c1ccc(N2CCOCC2)c([N+](=O)[O-])c1 (stereo unspecified) ?
Reply: 223 to 225 °C

We next turn to a different compound, shown below.
Query: Name the reported melting point value associated with the compound CC(C)(C)OC(=O)NC[C@H]1CC[C@H](CO)CC1
Reply: 88 to 89 °C

###

REPORTED ENDPOINT: melting point

Some entries whose results are on file:
Query: // returns reported melting point for input CNc1nc(-c2cccc(-c3cccc(-c4ccccc4)c3)c2)c2cc(OC)c(OC)cc2n1
Reply: 193 to 195 °C

Query: Then this compound: O=Cc1ccc2c(C=O)c[nH]c2c1
Reply: 200 to 203 °C

Query: Now give it for CC=CCOc1ccc(C)c2c1C(=O)C(C)C2c1ccccc1 (stereo unspecified) too.
Reply: 138 to 140 °C

Query: What do we get for COc1ccc(C=O)cc1OCC(F)F ?
Reply: 66 to 68 °C

---
Query: # query: melting point of entry CCCCCCCCCCCCCCCCCC(=O)NCC(O)CO (single isomer, unassigned; (+))
Reply: 112 to 114 °C

Query: Entry CCOC(=O)CCCCCCCn1c(Cc2ccccc2)nc(-c2ccccc2)c1-c1ccccc1 please
Reply: 82 to 83 °C
